assay: qHTS of pediatric cancer cell lines to identify multiple opportunities for drug repurposing: Primary screen for NB1643 cells (AID 1347099); settings: NB1643 neuroblastoma viability, CellTiter-Glo luminescence, 48 h; series mostly up to 46 µM; note: nearly all actives have a fitted effect of over 50% in size
Inconclusive results are not listed. Calls of active or inactive are those of the source. Calls come from the whole dose curve; as a rule, active = well fitted cell-killing curve with a large enough effect; inconclusive = small, poorly fitted or top-dose-only effect; inactive = no such curve, though single readings can be large or run the other way.
I would appreciate it if you answered using one of these outcomes: active, inactive

stdin: Record lookup: outcome of this test for `C/C=C/c1ccc(O)c(OC)c1` ?
stdout: inactive

stdin: Record lookup: outcome of this test for `NC(N)=NN=C(/C=C/c1ccc([N+](=O)[O-])o1)/C=C/c1ccc([N+](=O)[O-])o1` ?
stdout: active

stdin: Record lookup: outcome of this test for `CCCCNC(=O)NS(=O)(=O)c1ccc(N)cc1` ?
stdout: inactive

stdin: Record lookup: outcome of this test for CCC1NC(=O)c2cc(S(N)(=O)=O)c(Cl)cc2N1 (centres undefined) ?
stdout: inactive

Ref: PubChem BioAssay (NCATS)
